Assay: CCTE_Harrill_HTTr_Viability_MCF7: CCTE's 6-hour Cell Viability Assessment for the High-Throughput Transcriptomics (HTTr) Platform, in MCF-7 cells cultured in DMEM + 10% fetal bovine serum, Harrill Lab (AID 2284010)
Method: This is a cell-based assay that evaluates cell viability using high content imaging to evaluate membrane integrity using propidium iodide dye exclusion in a 384 well format.One of seven assay components measured from the CCTE_Harrill_HTTr_Viability assay. […] Measurements are taken at 6 hours after chemical dosing in 384-well format.The assay component endpoint CCTE_Harrill_HTTr_Viability_MCF7 was analyzed with bidirectional fitting relation to DMSO as the negative control and baseline of activity. […]
The source made the active and inactive calls. How the source made its calls: active means hit-call score of the fitted dose curve at least 0.9, where 1 is the maximum; inactive means score below 0.9.
Labels: active, inactive

[[record]]
compound = "CCOP(=S)(Oc1cnc(C(C)(C)C)nc1)OC(C)C (stereo unspecified)"
group_label = "inactive"

[[record]]
compound = "CC(C1CC1)C(O)(Cn1cncn1)c1ccc(Cl)cc1 (stereo unspecified)"
group_label = "inactive"

[[record]]
compound = "CCCOCC(=Nc1ccc(Cl)cc1C(F)(F)F)n1ccnc1"
group_label = "inactive"

[[record]]
compound = "O=[N+]([O-])c1cc(C(F)(F)F)c(Cl)c([N+](=O)[O-])c1Nc1ncc(C(F)(F)F)cc1Cl"
group_label = "active"

[[record]]
compound = "CCOP(=S)(OCC)OC(Cl)C(Cl)(Cl)Cl (stereo unspecified)"
group_label = "inactive"

[[record]]
compound = "Cc1ccn2nc(S(=O)(=O)Nc3c(F)cccc3F)nc2n1"
group_label = "inactive"

